- Test system: P-388
- ASSAY OVERVIEW: Prolongation of life span in P-388 implanted mice
- Assay type: in vivo, CDF mouse
- CONDITION CONTEXT: cured mice per group of 6; dosage 25 mg/kg
Answer each item with its documented cure.

What does the data say about its cure? Entry: COc1cc(NS(C)(=O)=O)ccc1Nc1c2ccccc2nc2c1[nH]c1cccc(C)c12
2/6

Repeat for the following compound: COc1cc(O)ccc1Nc1c2ccccc2nc2c1[nH]c1ccccc12
1/6

Repeat for the following compound: COc1cc(NS(C)(=O)=O)ccc1Nc1c2ccccc2nc2c1[nH]c1ccc(F)cc12
2/6
